# target desc: T1, CD3D&E protein (Cat #: CT038-H2508H, Sino Biological) (human, UniProt P04234 22-105; P07766 23-126)
# T1 construct: Bought complex of the delta and epsilon chains; also called CD3D&E complex; human CD3D&E complex
# T1 sequence (P04234 22-105, form in doubt, chain 1 of 2): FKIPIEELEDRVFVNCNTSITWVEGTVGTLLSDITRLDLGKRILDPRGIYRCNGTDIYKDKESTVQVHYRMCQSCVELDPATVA
# T1 sequence (P07766 23-126, form in doubt, chain 2 of 2): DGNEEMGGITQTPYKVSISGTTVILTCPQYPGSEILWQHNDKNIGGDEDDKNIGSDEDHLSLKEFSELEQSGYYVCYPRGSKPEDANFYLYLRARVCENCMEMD
# assay info: ELISA, coated CD3D&E
measurement label: EC50
Please append the unit to your numeric answer.

Query: Give the reported value of EC50 for this record: anti-CD3D&E antibody D1E9, full-length human IgG1 (L234A/L235A/N297A)/kappa (antibody, V domains shown) VH: EVQLVESGGGLVQPGRSLRLSCAASGFTFDDFAMHWVRQAPGKGLEWVSGITWNSGSVGYADSVKGRFTISRDNAKKSLYLQMNSLRAEDTALYYCAKDRSGYGHYYYGMDVWGQGTTVTVAS VL: EIVMTQSPATLSVSPGERATLSCRASTSVSHNVAWYQQKPGQAPRLLIYGASTKVTGIPARFSGSGSGTEFTLTISSLQSEDFAVYYCQHYINWPLTFGGGTKVEIKR
Response: 0.0879 µg/mL
